protocol: protein stability index of a GFP-peptide fusion (GPS, HEK-293T) (PSI 1-6); higher = more stable;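 note: 24-mer peptide tiles fused after GFP, lentivirally expressed, FACS-sorted into six equal bins by GFP/DsRed ratio, decoded by Illumina sequencing, PSI is the read-weighted mean bin number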
details: treatment: DMSO; c terminus: a fixed tail appended

[
  {
    "sequence-chain": "SEKAMLRSRIEEQSQLICILKRRS [CCDC89]",
    "protein stability index": 3.07
  },
  {
    "sequence-chain": "DYDDGFSMKHTATARFQRNHRLIS [SMARCE1]",
    "protein stability index": 2.99
  },
  {
    "sequence-chain": "KEHWTPEGHSIVGFAMYYFTYDPW [SAT1]",
    "protein stability index": 3.05
  }
]

====

protocol: protein stability index of a GFP-peptide fusion (GPS, HEK-293T) (PSI 1-6); higher = more stable
details: treatment: MLN4924 1 uM, 8 h; c terminus: a fixed tail appended

[
  {
    "sequence-chain": "AKGLAESLELPKAIQDQLPRLQQL [FANCE]",
    "protein stability index": 4.15
  },
  {
    "sequence-chain": "LALFPLLPKVLQKYWCVTATRVAP [ZBED1]",
    "protein stability index": 2.94
  },
  {
    "sequence-chain": "VRRSSRKSKAELQSEERKRIDELI [KMT5A]",
    "protein stability index": 4.51
  },
  {
    "sequence-chain": "MKYYIVHLKRHFMFRNHLCLVFEL [DYRK1B]",
    "protein stability index": 2.44
  },
  {
    "sequence-chain": "ALSSPRSRKNATQPPNAEEESGSS [INTS3]",
    "protein stability index": 5.38
  },
  {
    "sequence-chain": "KWLDMLNNWDKWMAKKHKKIRLRC [TBC1D10A]",
    "protein stability index": 2.27
  },
  {
    "sequence-chain": "LKKGESECQYYIDKLEYLDEKQRD [NET1]",
    "protein stability index": 4.5
  },
  {
    "sequence-chain": "RQNVPRKVPNHYIAIPEWFLSENA [CPXM2]",
    "protein stability index": 3.05
  },
  {
    "sequence-chain": "VADIDGQYAMTRAQRVRAAMFPET [CTNNB1]",
    "protein stability index": 3.6
  },
  {
    "sequence-chain": "SGRSGHNTRGTGSSSSGVLMVGPN [CSNK1G3]",
    "protein stability index": 4.18
  },
  {
    "sequence-chain": "SEKAMLRSRIEEQSQLICILKRRS [CCDC89]",
    "protein stability index": 3.19
  },
  {
    "sequence-chain": "DSRRIFVGQDNGAVMEFHVSEDFN [WDFY1]",
    "protein stability index": 4.22
  },
  {
    "sequence-chain": "RDFAETHNCVDLMQAAEVFSQKHF [KLHL12]",
    "protein stability index": 3.21
  },
  {
    "sequence-chain": "VRILLRRGVDVSLQGKDAWLPLHY [RIPK4]",
    "protein stability index": 2.29
  },
  {
    "sequence-chain": "LFLSHVLALGLGIYIGKRLSTPSA [BNIP3L]",
    "protein stability index": 2.94
  },
  {
    "sequence-chain": "HAGEHLLLGATKRSMVFKDVLLLG [HNF4A]",
    "protein stability index": 2.35
  },
  {
    "sequence-chain": "PPLLGTFPRDHTSLALVQNGDVSA [ANKRD40]",
    "protein stability index": 4.4
  }
]
